Reference for the values: ChEMBL document CHEMBL5113478

system: MOLT-4; assay: Antiproliferative activity against human MOLT-4 cells assessed as […] cell proliferation at 10 uM incubated for 48 hrs in presence of 2 uM of CDDP by WST-1 assay relative to control; assay type: functional
Short version: Activity at least 60% is YES, less is NO.

Input: Would you say CC(C)S(=O)(=O)c1ccc(-c2cnc3[nH]cc(C(=O)NCc4ccccc4)c3c2)cc1 shows Activity at minimum 60%?
Output: YES

Input: How about CC(C)S(=O)(=O)c1ccc(-c2cc(C(=O)Nc3ccc(N(C)C)cc3)n[nH]2)cc1 ?
Output: YES

Input: How about CCN1CCN(C(=O)c2c[nH]c3ncc(-c4ccc(S(=O)(=O)C(C)C)cc4)cc23)CC1 ?
Output: YES

Input: How about CCN1CCN(Cc2c[nH]c3ncc(-c4ccc(S(=O)(=O)C(C)C)cc4)cc23)CC1 ?
Output: YES

Input: How about CCN1CCN(C2CCN(C(=O)c3c[nH]c4ncc(-c5ccc(S(=O)(=O)C(C)C)cc5)cc34)CC2)CC1 ?
Output: YES

Input: How about CCN1CCN(C2CCN(C(=O)c3cc4cc(-c5ccc(S(C)(=O)=O)cc5)cnc4[nH]3)CC2)CC1 ?
Output: YES

Input: How about CCN1CCN(C2CCN(Cc3c[nH]c4ncc(-c5ccc(S(=O)(=O)C(C)C)cc5)cc34)CC2)CC1 ?
Output: NO

Input: How about CCN(CC)c1ccc(CNC(=O)c2c[nH]c3ncc(-c4ccc(S(=O)(=O)C(C)C)cc4)cc23)cc1 ?
Output: NO

Input: How about CS(=O)(=O)c1ccc(-c2cnc3[nH]cc(C(=O)NCc4ccccc4)c3c2)cc1 ?
Output: YES
